measured target: Human EphA2 (ephrin receptor A2) on cells (human, UniProt P29317 25-976)
Sequence (P29317 25-976): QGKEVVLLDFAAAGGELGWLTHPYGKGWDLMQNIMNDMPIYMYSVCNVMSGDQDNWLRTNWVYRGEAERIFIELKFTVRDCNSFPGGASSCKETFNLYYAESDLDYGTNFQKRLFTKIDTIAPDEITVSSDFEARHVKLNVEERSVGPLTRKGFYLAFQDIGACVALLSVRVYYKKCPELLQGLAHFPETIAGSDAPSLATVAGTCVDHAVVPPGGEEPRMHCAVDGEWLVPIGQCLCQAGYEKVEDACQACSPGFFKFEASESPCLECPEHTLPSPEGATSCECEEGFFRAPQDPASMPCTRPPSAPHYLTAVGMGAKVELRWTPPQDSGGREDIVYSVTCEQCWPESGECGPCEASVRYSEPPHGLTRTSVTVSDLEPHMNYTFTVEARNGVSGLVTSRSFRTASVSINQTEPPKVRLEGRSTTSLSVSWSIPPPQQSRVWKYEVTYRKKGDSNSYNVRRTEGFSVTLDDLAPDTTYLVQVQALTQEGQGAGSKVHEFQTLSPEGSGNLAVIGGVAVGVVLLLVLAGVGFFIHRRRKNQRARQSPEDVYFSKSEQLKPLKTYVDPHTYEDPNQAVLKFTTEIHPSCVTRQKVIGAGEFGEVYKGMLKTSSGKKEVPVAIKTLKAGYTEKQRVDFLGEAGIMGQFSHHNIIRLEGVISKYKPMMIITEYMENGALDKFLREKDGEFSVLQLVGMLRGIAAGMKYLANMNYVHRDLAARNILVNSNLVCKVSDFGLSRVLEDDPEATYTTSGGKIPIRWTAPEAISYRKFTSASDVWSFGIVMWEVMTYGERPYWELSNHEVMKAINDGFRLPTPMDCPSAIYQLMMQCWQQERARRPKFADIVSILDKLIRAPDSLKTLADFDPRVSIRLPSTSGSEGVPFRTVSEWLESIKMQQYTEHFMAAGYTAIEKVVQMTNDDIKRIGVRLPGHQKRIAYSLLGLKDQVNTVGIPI
protocol: cell-based or functional assay
Decide using ADCC EC50 alone. Strictly below 40 nM: satisfied. Equal to or above 40 nM: not satisfied.

// below: answered binders
AB-010148 (antibody, mouse IgG2a, V domains shown) VH: QVQLQQWGAGLLKPSETLSLTCAVYGGSFSDYYWSWIRQPPGKGLEWIGEINHRGSINYNNYNPSLKSRVTISVDTSKNQFSLKLSSVTAADTAVYYCAKPLRPHCTNGVCYSGDAFDIWGQGTMVTVAS VL: SYVLTQPPSVSVAPGQTARITCGGNNIGSKNVHWYQQKPGQAPVLVVYDDSDRPSGIPEQFSGSNSGNTATLTISRVEAGDEADYYCQVWDSSSDHLVFGGGTKLTVL | not satisfied
AB-010144 (antibody, mouse IgG2a, V domains shown) VH: QVQLQQWGAGLLKPSETLSLTCAVYGGSFSDYYWSWIRQPPGKGLEWIGEINHRGSINYNNYNPSLKSRVTISVDTSKNQFSLKLTSVTAADTAVYYCAKPLRPHCTNGVCYSGDAFDIWGQGTMVTVAS VL: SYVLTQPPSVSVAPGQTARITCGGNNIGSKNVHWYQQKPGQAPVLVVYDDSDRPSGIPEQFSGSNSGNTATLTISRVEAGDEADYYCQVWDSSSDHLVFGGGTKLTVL | satisfied
AB-010150 (antibody, mouse IgG2a, V domains shown) VH: QVQLQQWGAGLLKPSETLSLTCAVYGGSFSDYYWSWIRQPPGKGLEWIGEVNHRGSINYNNYNPSLKSRVTISVDTSKNQFSLKLSSVTAADTAVYYCAKPLRPHCTNGVCYSGDAFDIWGQGTMVTVSS VL: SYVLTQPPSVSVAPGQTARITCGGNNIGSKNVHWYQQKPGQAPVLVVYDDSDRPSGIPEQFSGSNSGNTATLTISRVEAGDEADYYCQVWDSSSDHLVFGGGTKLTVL | not satisfied
AB-010141 (antibody, mouse IgG2a, V domains shown) VH: QVQLQQWGAGLLKPSETLSLTCAVYGGSFSGYYWSWIRQPPGKGLEWIGEVNHRGSINYNNYNPSLKSRVTISVDTSKNQFSLKLTSVTAADTAVYYCAKPLRPHCTNGVCYSGDAFDIWGQGTMVTVAS VL: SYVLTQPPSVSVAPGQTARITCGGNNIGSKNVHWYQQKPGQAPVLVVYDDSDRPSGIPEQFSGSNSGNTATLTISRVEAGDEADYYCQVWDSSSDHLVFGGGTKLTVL | satisfied
AB-010151 (antibody, mouse IgG2a, V domains shown) VH: QVQLQQWGAGLLKPSETLSLTCAVYGGSFSDYYWSWIRQPPGKGLEWIGEINHRGSINYNNYNPSLKSRVTISVDTSKNQFSLKLSSVTAADTAVYYCAKPLRPHCTNGVCYSGDAFDIWGQGTMVTVSS VL: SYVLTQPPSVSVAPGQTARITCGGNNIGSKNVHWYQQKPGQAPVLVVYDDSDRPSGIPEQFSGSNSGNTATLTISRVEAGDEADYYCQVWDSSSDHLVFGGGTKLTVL | satisfied

Q: Could you please tell me whether ADCC EC50 recorded for AB-010143 (antibody, mouse IgG2a, V domains shown) VH: QVQLQQWGAGLLKPSETLSLTCAVYGGSFSDYYWSWIRQPPGKGLEWIGEVNHRGSINYNNYNPSLKSRVTISVDTSKNQFSLKLTSVTAADTAVYYCAKPLRPHCTNGVCYSGDAFDIWGQGTMVTVAS VL: SYVLTQPPSVSVAPGQTARITCGGNNIGSKNVHWYQQKPGQAPVLVVYDDSDRPSGIPEQFSGSNSGNTATLTISRVEAGDEADYYCQVWDSSSDHVVFGGGTKLTVL is less than 40 nM?
A: satisfied
